Cited source: patent US20250195513A1

Biological target: IRAK4 (Homo sapiens, UniProt Q9NWZ3)
Construct: endogenous in cells; host or cells: Karpas299
Sequence (Q9NWZ3 1-460): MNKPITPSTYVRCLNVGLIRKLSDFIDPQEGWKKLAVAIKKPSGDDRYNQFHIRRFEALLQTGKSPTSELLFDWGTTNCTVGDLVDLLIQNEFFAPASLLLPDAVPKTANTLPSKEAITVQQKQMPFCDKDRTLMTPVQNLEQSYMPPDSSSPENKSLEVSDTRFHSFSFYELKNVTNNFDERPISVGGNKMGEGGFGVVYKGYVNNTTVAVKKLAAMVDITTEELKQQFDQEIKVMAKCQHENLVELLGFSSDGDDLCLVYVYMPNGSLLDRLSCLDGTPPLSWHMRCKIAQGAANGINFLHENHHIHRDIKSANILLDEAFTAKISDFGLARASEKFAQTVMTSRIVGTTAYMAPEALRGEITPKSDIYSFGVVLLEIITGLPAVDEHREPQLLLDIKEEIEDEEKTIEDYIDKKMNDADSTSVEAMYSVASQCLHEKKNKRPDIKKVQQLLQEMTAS
Experiment: IRAK4 Degradation Assay (Karpas299, HTRF/TR-FRET)
Format: cell-based
Details: Karpas-299 cells, 24 h treatment; maximum percentage of degradation; read-out: IRAK4 in Karpas-299 (24 h) Dmax (%)
Reported values of Dmax for individual entries

>>> reported_value("COC[C@H]1CN(C2CCN(c3ccc(C4CCC(=O)NC4=O)nc3C)CC2)CCN1[C@H]1CC[C@H](n2cc3cc(NC(=O)c4ccc5cc(C#N)cnn45)c(C(C)(C)O)cc3n2)CC1 (stereo partly drawn)")
"97%"
>>> reported_value("CC(C)(O)c1cc2nn([C@H]3CC[C@H](N4CCN(C[C@@H]5CCN(c6ccc7c(c6)C(=O)N(C6CCC(=O)NC6=O)C7=O)C5)CC4)CC3)cc2cc1NC(=O)c1ccc2cc(C#N)cnn12 (stereo partly drawn)")
"94%"

Now take the following molecule into account.
Which Dmax is listed for CC(C)(O)c1cc2nn([C@H]3CC[C@H](N4CCN(C[C@@H]5CCN(c6cc(F)c([C@H]7CCC(=O)NC7=O)c(F)c6)C5)CC4)CC3)cc2cc1NC(=O)c1ccc2cc(C#N)cnn12 ?
97%
